- MEASURED ON: PKR R510Q (Homo sapiens, UniProt P30613, R510Q)
- Sequence (P30613 whole entry R510Q): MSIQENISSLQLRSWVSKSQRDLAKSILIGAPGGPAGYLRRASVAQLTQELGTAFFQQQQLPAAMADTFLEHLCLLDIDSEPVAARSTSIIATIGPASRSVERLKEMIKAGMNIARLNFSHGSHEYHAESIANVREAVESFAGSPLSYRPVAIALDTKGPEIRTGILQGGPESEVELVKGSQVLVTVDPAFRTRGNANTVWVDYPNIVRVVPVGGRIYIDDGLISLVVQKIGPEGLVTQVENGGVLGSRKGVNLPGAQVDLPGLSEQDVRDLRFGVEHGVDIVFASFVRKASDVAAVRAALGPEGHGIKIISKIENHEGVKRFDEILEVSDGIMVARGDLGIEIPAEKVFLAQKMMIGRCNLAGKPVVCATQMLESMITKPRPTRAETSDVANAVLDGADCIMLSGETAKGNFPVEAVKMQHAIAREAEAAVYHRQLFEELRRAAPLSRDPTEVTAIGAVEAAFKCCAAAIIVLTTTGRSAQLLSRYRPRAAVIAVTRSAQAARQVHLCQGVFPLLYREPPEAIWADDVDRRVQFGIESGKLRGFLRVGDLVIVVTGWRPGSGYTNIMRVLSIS
- ASSAY NOTES: PKR mutant assay (R510Q), AC50, LDH/NADH-coupled, absorbance at 340 nm
- Assay type: biochemical
- SETUP CONDITIONS: Table 2; enzyme assay; read-out: PK R510Q AC50
MEASUREMENT KIND: AC50

Query :: Which value of AC50 has been reported for Cn1c2nc([S+](C)[O-])sc2c2cnn(Cc3cnc(N)s3)c(=O)c21 (stereo not shown) in the records?
Result :: > 800 nM

Query :: Which value of AC50 has been reported for Cc1nc2c(s1)c1cnn(Cc3cccc(F)n3)c(=O)c1n2C in the records?
Result :: > 800 nM

Query :: Which value of AC50 has been reported for Cn1c2nc(S(N)(=O)=O)sc2c2cnn(Cc3cccc4[nH]ncc34)c(=O)c21 in the records?
Result :: < 300 nM

Query :: Which value of AC50 has been reported for Cn1c2nc(Cc3cccnc3)sc2c2cnn(Cc3cccc4[nH]ncc34)c(=O)c21 in the records?
Result :: < 300 nM

Recorded values, source patent US11957680B2.
